- Assay Notes: Approximate solubility by solvent aliquot addition, visual inspection
- Assay type: physicochemical
- Measurement Context: toluene, organic solvent or mixture, thermodynamic from solid, solvent Toluene
Measurement Label: solubility

GET /values?readout=solubility&item= Nc1ncn([C@H]2C[C@H](O)[C@@H](CO)O2)c(=O)n1
< 1000 µg/mL

====

- Assay Notes: Approximate solubility by solvent aliquot addition, visual inspection
- Assay type: physicochemical
- Measurement Context: 1,1,1-trichloroethane, organic solvent or mixture, thermodynamic from solid, solvent 1,1,1-Trichloroethane
- Procedure: Solvents were either reagent or HPLC grade. The aliquots were typically either 100 μL or 1 mL. Between additions, the mixture was typically shaken or sonicated. Whether the solids dissolved was judged by visual inspection. Solubilities were estimated from these experiments based on the total solvent used to provide complete dissolution. Solubilities were estimated from these experiments based on the total solvent used to give a solution. Duplicate runs were averaged.
Measurement Label: solubility

Please report the recorded solubility for Nc1ncn([C@H]2C[C@H](O)[C@@H](CO)O2)c(=O)n1 .
< 1000 µg/mL
